Each recorded value in this set is attributed to paper PMC6095626.

test system: HepG2 cells; experiment: Cytotoxicity against HepG2 cells, AlamarBlue viability assay, 48 hours; format: cell-based, human; conditions: read-out: HepG2 CC50 (this study)
observation type: CC50

Given item O=C(Nc1cccnc1)c1c(O)c2cccc3c2n(c1=O)CC3 , the value recorded as its CC50 is > 40 µM

Given item O=C(Nc1nnc(-c2ccc(Cl)s2)o1)c1ccc(Cl)s1 , the value recorded as its CC50 is > 40 µM

Given item O=C(Nc1ccc(C(F)(F)F)c(C(F)(F)F)c1)c1cc(Cl)ccc1O , the value recorded as its CC50 is < 5 µM

Given item COc1ccc2nccc(NC(=O)C3CCN(CCc4ccc(Cl)cc4)CC3)c2n1 , the value recorded as its CC50 is > 40 µM

Given item COc1cc(-c2cc(-c3ccc(S(C)(=O)=O)cc3)cnc2N)ccc1O , the value recorded as its CC50 is > 40 µM
